Documented pIC50 across a set of molecules
TARGET ENTITY: EGFR (human) (UniProt P00533)
Sequence (P00533 whole entry, looked up): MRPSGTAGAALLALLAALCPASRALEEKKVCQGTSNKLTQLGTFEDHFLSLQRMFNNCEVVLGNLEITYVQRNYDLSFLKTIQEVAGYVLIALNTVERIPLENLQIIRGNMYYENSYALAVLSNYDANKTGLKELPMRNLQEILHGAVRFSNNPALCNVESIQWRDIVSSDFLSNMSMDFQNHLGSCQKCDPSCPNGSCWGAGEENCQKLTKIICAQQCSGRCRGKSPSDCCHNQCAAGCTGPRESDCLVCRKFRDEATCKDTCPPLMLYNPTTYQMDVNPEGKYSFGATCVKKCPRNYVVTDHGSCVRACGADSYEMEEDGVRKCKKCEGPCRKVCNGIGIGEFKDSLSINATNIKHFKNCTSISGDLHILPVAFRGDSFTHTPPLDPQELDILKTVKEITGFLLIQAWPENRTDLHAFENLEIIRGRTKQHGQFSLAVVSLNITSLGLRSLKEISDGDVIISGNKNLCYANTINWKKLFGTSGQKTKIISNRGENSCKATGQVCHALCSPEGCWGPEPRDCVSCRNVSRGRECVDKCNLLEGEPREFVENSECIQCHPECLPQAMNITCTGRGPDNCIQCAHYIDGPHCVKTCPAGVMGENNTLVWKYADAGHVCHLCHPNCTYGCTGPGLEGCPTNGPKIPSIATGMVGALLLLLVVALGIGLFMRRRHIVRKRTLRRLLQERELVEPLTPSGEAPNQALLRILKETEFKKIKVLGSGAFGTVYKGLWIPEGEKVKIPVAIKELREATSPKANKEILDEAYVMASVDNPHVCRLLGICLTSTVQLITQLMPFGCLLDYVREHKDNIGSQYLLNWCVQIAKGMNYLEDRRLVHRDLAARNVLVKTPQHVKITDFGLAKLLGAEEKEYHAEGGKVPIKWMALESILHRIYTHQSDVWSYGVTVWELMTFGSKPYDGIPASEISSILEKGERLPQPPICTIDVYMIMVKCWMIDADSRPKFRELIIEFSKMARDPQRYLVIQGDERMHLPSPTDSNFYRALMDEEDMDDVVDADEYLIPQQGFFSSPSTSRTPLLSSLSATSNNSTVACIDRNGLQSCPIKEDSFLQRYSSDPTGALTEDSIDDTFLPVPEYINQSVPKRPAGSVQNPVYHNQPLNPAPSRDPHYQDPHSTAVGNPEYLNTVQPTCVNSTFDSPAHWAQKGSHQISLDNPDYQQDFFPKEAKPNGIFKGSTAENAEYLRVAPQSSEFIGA
pIC50: −log10 of the molar value.
METRIC NAME: pIC50

smiles_notation=COC[C@@H]1CCCN1N=Cc1ccc2ncnc(Nc3ccc(COc4cccc(F)c4)c(Cl)c3)c2c1 target_entity="EGFR (human) (UniProt P00533)" quantitative_readout=6.46
smiles_notation=CC#CC(=NOCC(=O)NCCOS(C)(=O)=O)c1ccc2ncnc(Nc3ccc(COc4cccc(F)c4)c(Cl)c3)c2c1 target_entity="EGFR (human) (UniProt P00533)" quantitative_readout=7.33
smiles_notation=CC#CC(=NOC[C@H]1COCCN1)c1ccc2ncnc(Nc3ccc(OCc4cccc(F)c4)c(Cl)c3)c2c1 target_entity="EGFR (human) (UniProt P00533)" quantitative_readout=6.93

###

Dear all, this message contains IC50 results, target or system EGFR (human).
METRIC NAME: IC50

smiles_notation=CC#CC(=NOC[C@@H]1COCCN1)c1ccc2ncnc(Nc3ccc(OCc4ccccn4)c(Cl)c3)c2c1 result="6.2 nM"
smiles_notation=C#CCN1CCC[C@H]1CON=C(C#CC)c1ccc2ncnc(Nc3ccc(OCc4cccc(F)c4)c(Cl)c3)c2c1 result="275 nM"
smiles_notation=CC#CC(=NOC[C@@H]1C[C@H](O)CN1)c1ccc2ncnc(Nc3ccc4c(cnn4Cc4cccc(F)c4)c3)c2c1 result="9.7 nM"
smiles_notation=CC#CC(=NOC[C@@H]1COCCN1)c1ccc2ncnc(Nc3ccc(OCc4cccc(F)c4)c(Cl)c3)c2c1 result="101 nM"
